Molecular target: BRD4 (BDI_K57-E168) (Homo sapiens, UniProt O60885)
Experiment: TR-FRET bromodomain binding assay, BRD4 BDI
metric: Ki (µM)

- compound: "Cc1cc(F)cc(C)c1Oc1ccc(C(C)(C)O)cc1-c1cn(C)c(=O)cc1O[C@H]1CC[C@H](NC(=O)C(C)(C)CCCO)CC1"
  valueUnit: "µM"
  valueReported: 2.53

a = CC(=O)NC12CCC(C(=O)N[C@H]3CC[C@H](Oc4cc(=O)n(C)cc4-c4cc(C(C)(C)O)ccc4Oc4c(C)cc(F)cc4C)CC3)(C1)C2 (relative stereo)
b = Cc1cc(F)cc(C)c1Oc1ccc(C(C)(C)O)cc1-c1cn(C)c(=O)cc1O[C@H]1CC[C@H](NC(=O)C2(C(N)=O)CC2)CC1
Task item: Compare reported Ki values for a and b . Which is lower? Lab note: record the label of whichever item you select.
Reply: b
(b: 1.19 µM, a: 1.8 µM)

---

Molecular target: BRD4 (BDI_K57-E168) (Homo sapiens, UniProt O60885)
Assay: TR-FRET bromodomain binding assay, BRD4 BDI
metric: Ki (µM)

Here's what some known entries look like.
- compound: "Cc1cc(F)cc(C)c1Oc1ccc(C(C)(C)O)cc1-c1cn(C)c(=O)cc1O[C@H]1CC[C@H](C(C)(C)O)CC1"
  assayTarget: "BRD4 (BDI_K57-E168) (Homo sapiens, UniProt O60885)"
  Ki (µM): 2.83
- compound: "COC(=O)N[C@H]1CC[C@H](Oc2cc(=O)n(C)cc2-c2cc(C(C)(C)O)ccc2Oc2c(C)cc(C(C)(C)O)cc2C)CC1"
  assayTarget: "BRD4 (BDI_K57-E168) (Homo sapiens, UniProt O60885)"
  Ki (µM): 1.09

P = Cc1cc(F)cc(C)c1Oc1ccc(C(C)(C)O)cc1-c1cn(C)c(=O)cc1O[C@H]1CC[C@H](N(C)C(=O)C(C)(C)C)CC1
Q = COCC(=O)N[C@H]1CC[C@H](Oc2cc(=O)n(C)cc2-c2cc(C(C)(C)O)ccc2Oc2c(C)cc(F)cc2C)CC1
R = Cc1cc(F)cc(C)c1Oc1ccc(C(C)(C)O)cc1-c1cn(C)c(=O)cc1O[C@H]1C[C@@H](C(=O)N2CCCC2)C1
Task item: Rank descending by Ki. Return the labels ranked in the requested order, please.
Reply: P, R, Q

I = Cc1cccc(C)c1Oc1ccc(C(C)(C)O)cc1-c1cn(C)c(=O)cc1NC1CCN(S(C)(=O)=O)CC1
II = Cc1cc(F)cc(C)c1Oc1ccc(C(C)(C)O)cc1-c1cn(C)c(=O)cc1O[C@H]1CC[C@H](N2C(=O)COC2=O)CC1
III = Cc1cccc(C)c1Oc1ccc(CN(C)C(N)=O)cc1-c1cn(C)c(=O)cc1O[C@H]1CC[C@H](NC(=O)C2(C)CC2)CC1
IV = Cc1cc(F)cc(C)c1Oc1ccc(C(C)(C)O)cc1-c1cn(C)c(=O)cc1O[C@H]1CC[C@H](C(=O)O)CC1
Task item: Descending sort on Ki required. Returns: the labels listed in the requested order.
Reply: IV, I, III, II
(IV: 12.2 µM, I: 5.89 µM, III: 2.92 µM, II: 1.51 µM)

1 = Cc1cccc(C)c1Oc1ccc(C(C)(C)O)cc1-c1cn(C)c(=O)cc1O[C@H]1CC[C@H](N2CCCC2=O)CC1
2 = Cc1cc(F)cc(C)c1Oc1ccc(C(C)(C)O)cc1-c1cn(C)c(=O)cc1O[C@H]1CC[C@H](N2C(=O)[C@H](C)N(C)C2=O)CC1
3 = COCC1(C(=O)N[C@H]2CC[C@H](Oc3cc(=O)n(C)cc3-c3cc(C(C)(C)O)ccc3Oc3c(C)cc(F)cc3C)CC2)CC1
Task item: List from greatest to least Ki. List the labels, following the order given in the request.
Reply: 2, 3, 1

a = COCC(C)(C)C(=O)N[C@H]1CC[C@H](Oc2cc(=O)n(C)cc2-c2cc(C(C)(C)O)ccc2Oc2c(C)cc(F)cc2C)CC1
b = Cc1cc(F)cc(C)c1Oc1ccc(C(C)(C)O)cc1-c1cn(C)c(=O)cc1O[C@H]1C[C@@H](C(C)(C)O)C1
Task item: Which of these two has the smaller recorded Ki: a or b ? Choose, then provide that item's label.
Reply: b
(b: 1.67 µM, a: 5.08 µM)

---

Target: UniProt:O60885
Experiment: TR-FRET bromodomain binding assay, BRD4 BDI
metric: Ki (µM)

Check out these entries, answers already filled in.
- molecule: "CCNC(=O)[C@H]1CC[C@H](Oc2cc(=O)n(C)cc2-c2cc(C(C)(C)O)ccc2Oc2c(C)cc(F)cc2C)CC1"
  valueUnit: "µM"
  Ki: 5.96
- molecule: "Cc1cc(F)cc(C)c1Oc1ccc(C(C)(C)O)cc1-c1cn(C)c(=O)cc1O[C@H]1CC[C@H](NC(=O)CCO)CC1"
  valueUnit: "µM"
  Ki: 2.53

I = Cc1cc(F)cc(C)c1Oc1ccc(C(C)(C)O)cc1-c1cn(C)c(=O)cc1O[C@H]1CC[C@H](N2C(=O)NC(C)(C)C2=O)CC1
II = CNC(=O)[C@H]1CC[C@H](Oc2cc(=O)n(C)cc2-c2cc(C(C)(C)O)ccc2Oc2c(C)cc(F)cc2C)CC1
Task item: Smaller Ki value? Options are I and II API: response body contains the label of the selected item.
Reply: II
(II: 3.53 µM, I: 11.2 µM)

---

Target: UniProt O60885
Experiment: TR-FRET bromodomain binding assay, BRD4 BDI
pKi: −log10 of the molar value.
metric: pKi

Completed entries (count: 3):
- molecule: "CCN1CC(=O)N([C@H]2CC[C@H](Oc3cc(=O)n(C)cc3-c3cc(C(C)(C)O)ccc3Oc3c(C)cc(F)cc3C)CC2)C1=O [Example 127]"
  pKi: 5.05
- molecule: "CC(=O)N(C)[C@H]1CC[C@H](Oc2cc(=O)n(C)cc2-c2cc(C(C)(C)O)ccc2Oc2c(C)cc(F)cc2C)CC1 [Example 16]"
  pKi: 5.55
- molecule: "Cc1cc(F)cc(C)c1Oc1ccc(C(C)(C)O)cc1-c1cn(C)c(=O)cc1O[C@H]1CC[C@H](N2CCC(C)(C)C2=O)CC1 [Example 48]"
  pKi: 5.75

I = Cc1cc(F)cc(C)c1Oc1ccc(C(C)(C)O)cc1-c1cn(C)c(=O)cc1O[C@H]1CC[C@H](N2C(=O)N[C@H](C)C2=O)CC1 [Example 132]
II = Cc1cc(F)cc(C)c1Oc1ccc(C(C)(C)O)cc1-c1cn(C)c(=O)cc1O[C@H]1CC[C@H](NC(=O)C23CC(C2)C3)CC1 (relative stereo) [Example 86]
Task item: Parameter check: reported pKi is higher for which label, I or II ? Refer to your chosen item by its label in the answer.
Reply: II

---

Target: BRD4 (BDI_K57-E168) (Homo sapiens)
Experiment: TR-FRET bromodomain binding assay, BRD4 BDI
pKi: −log10 of the molar value.
metric: pKi

Worked cases, answers included:
- molecule: "Cc1cc(F)cc(C)c1Oc1ccc(C(C)(C)O)cc1-c1cn(C)c(=O)cc1O[C@H]1CC[C@H](NC(=O)CCC(C)(C)O)CC1"
  assayTarget: "BRD4 (BDI_K57-E168) (Homo sapiens)"
  pKi: 5.55
- molecule: "Cc1cc(F)cc(C)c1Oc1ccc(C(C)(C)O)cc1-c1cn(C)c(=O)cc1O[C@H]1C[C@@H](CNC(=O)OC(C)(C)C)C1"
  assayTarget: "BRD4 (BDI_K57-E168) (Homo sapiens)"
  pKi: 5.57
- molecule: "CC(=O)N[C@H]1C[C@H](Oc2cc(=O)n(C)cc2-c2cc(C(C)(C)O)ccc2Oc2c(C)cc(F)cc2C)C1"
  assayTarget: "BRD4 (BDI_K57-E168) (Homo sapiens)"
  pKi: 6.14

A = Cc1cc(F)cc(C)c1Oc1ccc(C(C)(C)O)cc1-c1cn(C)c(=O)cc1O[C@H]1CC[C@H](NC(=O)C2(C)COC2)CC1
B = Cc1cc(F)cc(C)c1Oc1ccc(C(C)(C)O)cc1-c1cn(C)c(=O)cc1O[C@H]1CC[C@H](NC(=O)C2(C#N)CCC2)CC1
Task item: Returns the identifier with the smallest measured pKi among A and B . Answer = label.
Reply: B

---

Biological target: BRD4 (BDI_K57-E168) (Homo sapiens, UniProt O60885)
Assay: TR-FRET bromodomain binding assay, BRD4 BDI
metric: Ki (nM)

- compound: "COC(=O)N[C@H]1CC[C@H](Oc2cc(=O)n(C)cc2-c2cc(C(C)(C)O)cnc2Oc2c(C)cc(F)cc2C)CC1"
  metric: "Ki"
  valueUnit: "nM"
  valueReported: 1960
- compound: "Cc1cc(F)cc(C)c1Oc1ccc(C(C)(C)O)cc1-c1cn(C)c(=O)cc1O[C@H]1CC[C@H](NC(=O)c2ccccc2C(=O)O)CC1"
  metric: "Ki"
  valueUnit: "nM"
  valueReported: 4170
- compound: "Cc1cccc(C)c1Oc1ccc(C(C)(C)O)cc1-c1cn(C)c(=O)cc1NC1CCN(S(C)(=O)=O)C1 (centres unmarked)"
  metric: "Ki"
  valueUnit: "nM"
  valueReported: 553
- compound: "CC(=O)NC[C@H]1C[C@H](Oc2cc(=O)n(C)cc2-c2cc(C(C)(C)O)ccc2Oc2c(C)cc(F)cc2C)C1"
  metric: "Ki"
  valueUnit: "nM"
  valueReported: 720
- compound: "Cc1cc(F)cc(C)c1Oc1ccc(C(C)(C)O)cc1-c1cn(C)c(=O)cc1O[C@H]1CC[C@H](N2C(=O)C(C)(C)N(C)C2C)CC1 (relative stereo)"
  metric: "Ki"
  valueUnit: "nM"
  valueReported: 1670

I = Cc1cc(F)cc(C)c1Oc1ccc(C(C)(C)O)cc1-c1cn(C)c(=O)cc1NC1CCC(C)(O)CC1 (centres unmarked)
II = Cc1cc(F)cc(C)c1Oc1ccc(C(C)(C)O)cc1-c1cn(C)c(=O)cc1O[C@H]1CC[C@H](N2C(=O)N(C)C(C)(C)C2=O)CC1
Task item: Between I and II , which one shows the larger Ki value? Give the label of your selection.
Reply: I
(I: 3630 nM, II: 940 nM)

A = Cc1cc(F)cc(C)c1Oc1ccc(C(C)(C)O)cc1-c1cn(C)c(=O)cc1O[C@H]1CC[C@H](C(=O)N(C)C)CC1
B = COC(=O)NC[C@H]1C[C@H](Oc2cc(=O)n(C)cc2-c2cc(C(C)(C)O)ccc2Oc2c(C)cc(F)cc2C)C1
C = Cc1cc(F)cc(C)c1Oc1ccc(C(C)(C)O)cc1-c1cn(C)c(=O)cc1O[C@H]1CC[C@H](NC(=O)C23CCC(NC(=O)OC(C)(C)C)(C2)C3)CC1 (relative stereo)
D = CC(=O)N(CCO)[C@H]1CC[C@H](Oc2cc(=O)n(C)cc2-c2cc(C(C)(C)O)ccc2Oc2c(C)cc(F)cc2C)CC1
Task item: Sort (4 compounds) by Ki: min first. Provide the ranking by listing each label in its place in the requested order.
Reply: B, D, A, C
(B: 906 nM, D: 2260 nM, A: 5440 nM, C: 8010 nM)

a = Cc1cc(F)cc(C)c1Oc1ccc(C(C)(C)O)cc1-c1cn(C)c(=O)cc1O[C@H]1C[C@@H](C(=O)O)C1
b = Cc1cc(F)cc(C)c1Oc1ncc(C(C)(C)O)cc1-c1cn(C)c(=O)cc1O[C@H]1CC[C@H](N2CCCC2=O)CC1
Task item: Please compare: a and b . Report which one has the smaller Ki value. Answer by stating the label of the chosen item.
Reply: b
